# ASSAY DETAILS: Metabolic stability human hepatocyte assessed as half life at 1 uM measured up to 120 mins by LC-MS/MS analysis
# Type: ADME, cell-based
# TEST CONTEXT: hepatocytes
PROPERTY NAME: half-life at 1 µM
The reply must contain the numeric value and, after it, the unit.

Inquiry: Dear colleague, I am looking for the recorded half-life at 1 µM of the following compound: Cn1c(=O)n(C2CCC(=O)NC2=O)c2cccc(C#CCO[C@H]3CC[C@H](CN4CCC5(CC4)Cc4cc(NC(=O)c6coc7cccnc67)c(N6CCC(CO)CC6)cc4O5)CC3)c21 (stereo partly specified)
Reply text: 2.5 h

----------
# ASSAY DETAILS: Metabolic stability in cynomolgus monkey liver microsome assessed as half life at 1 uM measured up to 60 mins in presence of NADPH by LC-MS/MS analysis
# Assay type: ADME, Macaca fascicularis
# TEST CONTEXT: liver microsomes
Catalogue of compounds with associated half-life at 1 µM
Provide the reading as a plain figure in h.

Please review the entries below; each comes with its answer.
COMPOUND: Cn1c(=O)n(C2CCC(=O)NC2=O)c2cccc(C#CCO[C@H]3CC[C@H](CN4CCC5(CC4)Cc4cc(NC(=O)c6cnn7cc(C#N)cnc67)c(N6CCC(CO)CC6)cc4O5)CC3)c21 (stereo not given in full)
RECORDED VALUE: 1.07

COMPOUND: Cn1c(=O)n(C2CCC(=O)NC2=O)c2cccc(C#CCO[C@H]3CC[C@H](CN4CCC5(CC4)Cc4cc(NC(=O)c6coc7cccnc67)c(N6CCC(CO)CC6)cc4O5)CC3)c21 (stereo not given in full)
RECORDED VALUE: 1.98

COMPOUND: Cn1c(=O)n(C2CCC(=O)NC2=O)c2cccc(C#CCO[C@H]3CC[C@@H](CN4CCC5(CC4)Cc4cc(NC(=O)c6cnn7cccnc67)c(N6CCC(CO)CC6)cc4O5)CC3)c21 (stereo not given in full)
RECORDED VALUE: 0.183

COMPOUND: Cn1c(=O)n(C2CCC(=O)NC2=O)c2cccc(C#CCO[C@H]3CC[C@H](CN4CCC5(CC4)Cc4cc(NC(=O)c6cnn7cc(Cl)cnc67)c(N6CCC(CO)CC6)cc4O5)CC3)c21 (stereo not given in full)
RECORDED VALUE: 1.87

COMPOUND: Cn1c(=O)n(C2CCC(=O)NC2=O)c2cccc(C#CCOC3CCN(CCN4CCC5(CC4)Cc4cc(NC(=O)c6cnn7cccnc67)c(N6CCC(CO)CC6)cc4O5)CC3)c21 (stereo not given)
RECORDED VALUE: 0.0333

Inquiry: Dear colleague, I am looking for the recorded half-life at 1 µM of the following compound: Cn1c(=O)n(C2CCC(=O)NC2=O)c2cccc(CN3CCC(CCN4CCC5(CC4)Cc4cc(NC(=O)c6cnn7cccnc67)c(N6CCC(CO)CC6)cc4O5)CC3)c21 (stereo not given)
Reply text: 0.217

Inquiry: Now consider Cn1c(=O)n(C2CCC(=O)NC2=O)c2cccc(C#CCO[C@H]3CC[C@H](CN4CCC5(CC4)Cc4cc(NC(=O)c6cnn7cccnc67)c(N6CCC(CO)CC6)cc4O5)CC3)c21 (stereo not given in full) and answer again.
Reply text: 2.33

Inquiry: Now consider Cn1c(=O)n(C2CCC(=O)NC2=O)c2cccc(C#CCO[C@H]3CC[C@H](CN4CCC5(CC4)Cc4cc(NC(=O)c6cnn7cccnc67)c(N6CCC(O)CC6)cc4O5)CC3)c21 (stereo not given in full) and answer again.
Reply text: 1.07

Inquiry: Now consider Cn1c(=O)n(C2CCC(=O)NC2=O)c2cccc(CN3CCC4(CC3)CN(CCN3CCC5(CC3)Cc3cc(NC(=O)c6cnn7cccnc67)c(N6CCC(CO)CC6)cc3O5)C4)c21 (stereo not given) and answer again.
Reply text: 1.17

----------
# ASSAY DETAILS: Half life in male C57BL/6 mouse at 2 mg/kg, iv measured up to 24 hrs by LC-MS/MS analysis
# Format: ADME, organism-based
# TEST CONTEXT: in vivo
Catalogue of compounds with associated half-life
Provide the reading as a plain figure in h.

Please review the entries below; each comes with its answer.
COMPOUND: Cn1c(=O)n(C2CCC(=O)NC2=O)c2cccc(C#CCO[C@H]3CC[C@H](CN4CCC5(CC4)Cc4cc(NC(=O)c6coc7cccnc67)c(N6CCC(CO)CC6)cc4O5)CC3)c21 (stereo not given in full)
RECORDED VALUE: 3.12

COMPOUND: Cn1c(=O)n(C2CCC(=O)NC2=O)c2cccc(C#CCO[C@H]3CC[C@H](CN4CCC5(CC4)Cc4cc(NC(=O)c6cnn7cccnc67)c(N6CCC(O)CC6)cc4O5)CC3)c21 (stereo not given in full)
RECORDED VALUE: 2.76

COMPOUND: Cn1c(=O)n(C2CCC(=O)NC2=O)c2cccc(C#CCO[C@H]3CC[C@H](CN4CCC5(CC4)Cc4cc(NC(=O)c6cnn7cc(F)cnc67)c(N6CCC(CO)CC6)cc4O5)CC3)c21 (stereo not given in full)
RECORDED VALUE: 4.07

COMPOUND: Cn1c(=O)n(C2CCC(=O)NC2=O)c2cccc(C#CCO[C@H]3CC[C@H](CN4CCC5(CC4)Cc4cc(NC(=O)c6cnn7cccnc67)c(N6CCC(CO)CC6)cc4O5)CC3)c21 (stereo not given in full)
RECORDED VALUE: 2.69

Inquiry: Dear colleague, I am looking for the recorded half-life of the following compound: Cn1c(=O)n(C2CCC(=O)NC2=O)c2cccc(C#CCO[C@H]3CC[C@H](CN4CCC5(CC4)Cc4cc(NC(=O)c6cnc7cccnn67)c(N6CCC(CO)CC6)cc4O5)CC3)c21 (stereo not given in full)
Reply text: 9.75

----------
# ASSAY DETAILS: AUClast in male C57BL/6 mouse at 10 mg/kg, po measured up to 24 hrs by LC-MS/MS analysis
# Format: ADME, organism-based
# TEST CONTEXT: in vivo
Catalogue of compounds with associated AUC(0-t) at 24 h
Provide the reading as a plain figure in ng·h/mL.

Please review the entries below; each comes with its answer.
COMPOUND: Cn1c(=O)n(C2CCC(=O)NC2=O)c2cccc(C#CCO[C@H]3CC[C@H](CN4CCC5(CC4)Cc4cc(NC(=O)c6cnn7cccnc67)c(N6CCC(O)CC6)cc4O5)CC3)c21 (stereo not given in full)
PROPERTY NAME: AUC(0-t) at 24 h
RECORDED VALUE: 42100
//
COMPOUND: Cn1c(=O)n(C2CCC(=O)NC2=O)c2cccc(C#CCO[C@H]3CC[C@H](CN4CCC5(CC4)Cc4cc(NC(=O)c6cnn7cccnc67)c(N6CCC(CO)CC6)cc4O5)CC3)c21 (stereo not given in full)
PROPERTY NAME: AUC(0-t) at 24 h
RECORDED VALUE: 14800
//
COMPOUND: Cn1c(=O)n(C2CCC(=O)NC2=O)c2cccc(C#CCO[C@H]3CC[C@H](CN4CCC5(CC4)Cc4cc(NC(=O)c6cnc7cccnn67)c(N6CCC(CO)CC6)cc4O5)CC3)c21 (stereo not given in full)
PROPERTY NAME: AUC(0-t) at 24 h
RECORDED VALUE: 7390
//
COMPOUND: Cn1c(=O)n(C2CCC(=O)NC2=O)c2cccc(C#CCO[C@H]3CC[C@H](CN4CCC5(CC4)Cc4cc(NC(=O)c6cnn7cc(F)cnc67)c(N6CCC(CO)CC6)cc4O5)CC3)c21 (stereo not given in full)
PROPERTY NAME: AUC(0-t) at 24 h
RECORDED VALUE: 27000

Then this compound:
Inquiry: Dear colleague, I am looking for the recorded AUC(0-t) at 24 h of the following compound: Cn1c(=O)n(C2CCC(=O)NC2=O)c2cccc(C#CCO[C@H]3CC[C@H](CN4CCC5(CC4)Cc4cc(NC(=O)c6coc7cccnc67)c(N6CCC(CO)CC6)cc4O5)CC3)c21 (stereo not given in full)
Reply text: 23400

----------
Catalogue of molecules with associated Emax
# MEASUREMENT TARGET: Protein cereblon/Interleukin-1 receptor-associated kinase 4 (Homo sapiens, UniProt Q9NWZ3+Q96SW2)
# Sequence (Q96SW2 whole entry, looked up): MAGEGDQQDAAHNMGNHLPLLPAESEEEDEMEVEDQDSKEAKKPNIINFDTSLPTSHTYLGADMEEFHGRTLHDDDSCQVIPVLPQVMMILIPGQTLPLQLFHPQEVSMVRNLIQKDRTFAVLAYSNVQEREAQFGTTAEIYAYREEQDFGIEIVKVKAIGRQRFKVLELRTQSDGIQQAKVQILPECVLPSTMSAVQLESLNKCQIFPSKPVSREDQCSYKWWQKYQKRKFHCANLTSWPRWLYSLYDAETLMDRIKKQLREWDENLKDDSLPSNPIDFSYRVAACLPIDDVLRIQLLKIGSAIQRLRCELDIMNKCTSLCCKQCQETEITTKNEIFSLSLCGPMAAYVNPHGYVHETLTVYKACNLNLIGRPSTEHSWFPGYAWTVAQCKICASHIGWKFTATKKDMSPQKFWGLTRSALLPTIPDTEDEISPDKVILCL
# Sequence (Q9NWZ3 whole entry, looked up): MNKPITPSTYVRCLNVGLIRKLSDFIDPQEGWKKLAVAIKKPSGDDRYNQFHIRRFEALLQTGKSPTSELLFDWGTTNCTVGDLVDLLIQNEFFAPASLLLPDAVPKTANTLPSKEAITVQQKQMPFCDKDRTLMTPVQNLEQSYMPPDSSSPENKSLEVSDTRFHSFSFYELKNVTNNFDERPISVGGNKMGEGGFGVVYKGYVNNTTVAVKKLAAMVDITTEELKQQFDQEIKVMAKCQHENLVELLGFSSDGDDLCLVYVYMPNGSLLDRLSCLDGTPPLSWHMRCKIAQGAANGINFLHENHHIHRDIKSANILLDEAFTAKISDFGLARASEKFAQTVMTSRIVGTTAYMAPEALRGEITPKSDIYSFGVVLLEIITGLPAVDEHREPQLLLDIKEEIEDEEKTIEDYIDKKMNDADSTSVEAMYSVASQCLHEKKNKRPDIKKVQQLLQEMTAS
# ASSAY DETAILS: PROTAC activity at CRBN/IRAK4 in human THP-1 cells assessed as induction of IRAK4 degradation incubated for 24 hrs by HiBiT lytic reagent based analysis relative to control
# Format: cell-based
Provide the reading as a plain figure in %.

Please review the entries below; each comes with its answer.
MOLECULE: Cn1c(=O)n(C2CCC(=O)NC2=O)c2cccc(C#CCO[C@H]3CC[C@H](CN4CCC5(CC4)Cc4cc(NC(=O)c6cnc7cccnn67)c(N6CCC(CO)CC6)cc4O5)CC3)c21 (stereo partly drawn)
VALUE UNIT: %
RECORDED VALUE: 90

MOLECULE: Cn1c(=O)n(C2CCC(=O)NC2=O)c2cccc(CN3CCC4(CC3)CN(CCN3CCC5(CC3)Cc3cc(NC(=O)c6cnn7cccnc67)c(N6CCC(CO)CC6)cc3O5)C4)c21 (stereo not drawn)
VALUE UNIT: %
RECORDED VALUE: 95

Then this molecule:
Inquiry: Dear colleague, I am looking for the recorded Emax of the following molecule: Cn1c(=O)n(C2CCC(=O)NC2=O)c2cccc(C#CCO[C@H]3CC[C@H](CN4CCC5(CC4)Cc4cc(NC(=O)c6cnn7cccnc67)c(N6CCC(C(=O)O)CC6)cc4O5)CC3)c21 (stereo partly drawn)
Reply text: 38

Reference source: ChEMBL document CHEMBL6182949
